The reported measurements were obtained from PubChem BioAssay (NCI).

Test system: OVCAR-5 ovarian
Assay: NCI-60 one-dose screen, 48 h (100 = growth as untreated, 0 = no growth, -100 = all killed)
Conditions: 10 µM unless noted
About 83,000 compounds went through this panel and 20% of them were active in at least one assay; those are over-represented in the sample as a whole.
VALUE TYPE: growth (%)

>>> recorded_number("O=C1N/C(=N\\c2nccs2)S/C1=C\\C=C/c1ccccc1")
61.8
>>> recorded_number("Nc1nnc(-c2c[nH]c3ccc(Br)cc23)c(-c2c[nH]c3ncc(Br)cc23)n1")
59
>>> recorded_number("COc1ccc2oc(=O)c(C3(C)NC(=O)c4c(/C=C/C(=O)OC(C)(C)C)cccc4N3)cc2c1 (stereo not drawn)")
60.9
